Test system: Zika virus NS2B-NS3 protease (unlinked complex)
Experiment: Primary screen GU Rhodamine qHTS for Zika virus inhibitors: Unlinked NS2B-NS3 protease assay (AID 1347159); also: nearly all actives have a fitted effect of over 60% in size
Conditions: Recombinant ZIKV NS2B-NS3 protease, Rhodamine110 substrate fluorescence; series mostly up to 107 µM
Results filed as inconclusive are left out. Activity calls are given as the source filed them. Calls follow the shape of the dose curve; as a rule, active = well fitted inhibition curve with a large enough effect; inconclusive = small, poorly fitted or top-dose-only effect; inactive = no such curve, though single readings can be large or run the other way.

| molecule | assayed_system | outcome |
| --- | --- | --- |
| COC(=O)C1=CO[C@@H](O[C@@H]2O[C@H](CO[C@@H]3O[C@H](CO)[C@@H](O)[C@H](O)[C@H]3O)[C@@H](O)[C@H](O)[C@H]2O)[C@@H]2C(CO)=CC[C@H]12 | Zika virus NS2B-NS3 protease (unlinked complex) | inactive |
| OC[C@H]1O[C@@H](O[C@H]2[C@H](O)[C@@H](CO)O[C@@H](OCc3ccccc3)[C@@H]2O[C@@H]2OC[C@](O)(CO)[C@H]2O)[C@H](O)[C@@H](O)[C@@H]1O | Zika virus NS2B-NS3 protease (unlinked complex) | inactive |
| COC(=O)C1=CO[C@@H](O[C@@H]2O[C@H](CO)[C@@H](O)[C@H](O)[C@H]2O)[C@@H]2C(CO)=CC[C@H]12 | Zika virus NS2B-NS3 protease (unlinked complex) | inactive |

---

Target: Cytochrome P450 2C9 (Homo sapiens)
Test: Cytochrome P450 family 2 subfamily C member 9 (CYP2C9) small molecule antagonists: luciferase biochemical (cell-free) qHTS assay (AID 1645842); also: nearly all actives have a fitted effect of over 55% in size
Conditions: P450-Glo CYP2C9 enzyme assay, luciferin luminescence; series mostly up to 57.4 µM
Records with an inconclusive call do not appear. Active and inactive are the calls of the source. Calls follow the shape of the dose curve; as a rule, active = well fitted inhibition curve with a large enough effect in the repeat runs; inconclusive = weak or mixed curves; inactive = no such curve, though single readings can be large or run the other way.
Answer with one of the outcomes class 1 (active), class 0 (inactive)

| molecule | group |
| --- | --- |
| Cc1ccc2nc(NC(=O)CSc3nc4c(c(=O)n3-c3ccc(F)cc3)SCC4)sc2c1 | class 1 |
| CC(C)NC(=O)c1ccc(C#Cc2ccncc2)cn1 | class 1 |
| NC(=O)[C@@H]1CC[C@H](c2ccc(OCc3ccccc3F)cc2)N1 | class 0 |
| CCOC(=O)C(CCc1ccccc1)NC1CCCN2CCCC(C(=O)O)N2C1=O (centres undefined) | class 0 |
| Cc1onc(-c2ccccc2Cl)c1C(=O)N(C)c1ccc(Cl)cc1 | class 1 |

Prompt: Which outcome did this test record for the molecule CCCCOc1nc(N)c2c(n1)N(Cc1cccc(CN3CCCC3)c1)CC(=O)N2 ?
Completion: class 0

Prompt: Hi team, can someone confirm the assay call for CN(C)C(=O)C(O)C(Cc1ccccc1)NC(=O)c1cc2cc(Cl)ccc2[nH]1 (centres undefined) ?
Completion: class 1

Prompt: Status in this test for CN[C@H](CNC(=O)N1CCC[C@@H]([C@@H](OCCNC(=O)OC)c2cccc(Cl)c2)C1)C[C@H]1CCCOC1 ?
Completion: class 0

Prompt: Which outcome was assigned to Cc1cc(-c2nncc3c(C(C)(C)C)c(OCc4ncnn4C)nn23)no1 in this test?
Completion: class 1

Prompt: Please share the test call associated with COc1cccc(C(=O)NCCNc2nc3cc(C)cc(C)c3cc2C#N)c1 .
Completion: class 1

Prompt: Recorded test outcome, item CCCCNc1nc(N)c2[nH]c(=O)n(Cc3ccc(OCCN(C)C)nc3)c2n1
Completion: class 0

Prompt: Hi, sorry to bother you, what did the test record for CNC(=O)c1ccc2c(c1)CCO[C@H]2CCN1CCN(c2ccc(C(N)=O)cc2)CC1 ?
Completion: class 0

Prompt: Called result for NC(=O)c1ccc(F)c2c1C[C@@H](N(C1CCC1)C1CCC1)CO2
Completion: class 0

Prompt: Just curious, what result did CCCSc1nc(NC2CC2c2ccc(F)c(F)c2)c2nnn(C3CC(OCCO)C(O)C3O)c2n1 (centres undefined) get here?
Completion: class 1
